Source of measurements: the supplement of paper PMC9170038

# Test system: MS2 coat protein
# assay_name: apparent KD of MS2 coat protein; higher = weaker reporter binding
# conditions: Eterna round: R107; input ligand: theophylline 20 uM
Reported apparent KD of MS2 coat protein is given for each of the following sequences.
Give the figure together with its unit, number first.

In the examples that follow, each entry is paired with its recorded apparent KD of MS2 coat protein.
>  <seq_text>
ACAUGAGGAUCACCCAUGUACAUCACCCGACGAGGACCGGUACGGCCGCCACUCGGGUAUAUAUAUACAUCGGGUGAUUUUGCAU [#21 Tryptophan A Same State]

>  <apparent KD of MS2 coat protein>
108 nM

$$$$
>  <seq_text>
CAAUAAGUACCGGUCCUCAGAUCCUCAUGACGAGGACCGGUACGGCCGCCACUCGAAACAUGAGGAUCACCCAUGUAAUAAUAAC [Brourdmod02]

>  <apparent KD of MS2 coat protein>
68.4 nM

$$$$
>  <seq_text>
UGUAUGUGAUCUGAUACCAGAGUUGAUAACCUGAGGAUCACCCUGGUAAGGCGAAAGCCACUCCCUUGGCAGCAGAUCGCAUACU

>  <apparent KD of MS2 coat protein>
67.4 nM

$$$$
>  <seq_text>
AGCACUGUGACGGCCGCCACUACAUAAGAUGGGUGGUCAGGUUCAUUACAUGAGGAUCACCCAUGUAGGACCGGGUCUCAGUGCA [Omei Trp Exc B A v10]

>  <apparent KD of MS2 coat protein>
16.5 nM

$$$$
>  <seq_text>
AGCCCGGGAGCGGCCGCCACUGGAGGCUUAGCGCGACAUGAGGAUCACCCAUGUGUGCCCGGCGUUAGGACCGGGCUCGCGUGGU [#1 Same State - Tryptophan B Attempt #22 (HarryS)]

>  <apparent KD of MS2 coat protein>
52.7 nM

$$$$

From here, focus on the item given below.
### Prompt Answer with apparent KD of MS2 coat protein of CCGUCACAUGAGGAUCACCCAUGUGCGGAAGGAGCGGACGAUAGUCCAGGUAGGUCGCCGUAUAGCCAAUGACCAGCAGUGUCGG [XARG-A 22] measured for MS2 coat protein.
### Response 16.6 nM

* * *

# Tested on: MS2 coat protein
# assay_name: apparent KD of MS2 coat protein, switch ON state; designed switch direction (-1 OFF switch, 1 ON switch): -1; higher = weaker reporter binding
# conditions: FMN input: 0 or 200 uM; Eterna round: R93 (includes R88 designs)
Response key: Criterion met means apparent KD of MS2 coat protein >= 0.04 µM; Criterion not met means apparent KD of MS2 coat protein < 0.04 µM.

>  <seq_text>
AGCAAGUUAGGAUAUGCGAAGUCAGGACACACACUGACAAAGCAGAAGGAACAUGAGGAUCACCCAUGUAAGCA [Mat - Exaclusion 4 - Eli mod - D64]

>  <discrete_label>
Criterion not met

$$$$

### Prompt Confirm if apparent KD of MS2 coat protein reported for the sequence GGGUAACAUGAGGAUCACCCAUGUGAGGAUAUCCUAGGGAUGGAAGCCAGGCCAAAAAGGAGAAGGUACUAAAG [Janelle Amethyst 18 Mod 17 - Jieux - Exclusion 1] is 0.04 µM or above.
### Response Criterion met

### Prompt // inclusive: apparent KD of MS2 coat protein at least 0.04 µM? input: AAAAAGUCAGGAUAUACGUACAUGUCAAAAGACGUGAAGGGACAUGAGGAUCACCCAUGUAGAAGGGACAAGAA [JL Stem Breaker 21]
### Response Criterion met

### Prompt Say whether AAAACGGUAGGAUAUACAAUUGAGAACUAGAUCGAAAAAAAACAUGAGGAUCACCCAUGUAGAAGGGCCAAAAA [Ex2 Malc#10] shows apparent KD of MS2 coat protein of 0.04 µM or more.
### Response Criterion not met

* * *

Overview of recorded apparent KD of MS2 coat protein for various sequences
# Test system: MS2 coat protein
# assay_name: apparent KD of MS2 coat protein; designed switch direction (-1 OFF switch, 1 ON switch): -1; higher = weaker reporter binding
# conditions: input ligand: none
Your answer should be a plain number; it is taken to be in µM.

### Prompt Complete the entry with apparent KD of MS2 coat protein for AACAAGUCAGGAUAUGCCCUGAUAGACUUGAGGAUCACCCAAGUAAGUCUAUCUGGCUAAGCAGAAGGGACAAAAG [Usrabe] (Eterna round: R97, puzzle: Exclusion 5)
### Response 0.649

### Prompt Give reported apparent KD of MS2 coat protein value for AUCCAACAUGAGGAUCACCCAUGUCAGGAUAUACCCAUCUCCACCUAAUCGGUGGUGGGUAGAAGGGAUAUGUC [EX1 B.10] (Eterna round: R97, puzzle: Exclusion 1)
### Response 0.0189

### Prompt Supply recorded apparent KD of MS2 coat protein for AAGGGUGCUUUCAGAACGACAUGAGGAUCACCCAUGUAGACUGAGGAUAUCUACUCCUAAGGACGGGAGAAGGCAGUGUAAUGC [Ex NG3 #65] (Eterna round: R96, puzzle: Exclusion NG 3) here.
### Response 0.0217

### Prompt Find the measured apparent KD of MS2 coat protein of UAGUACAGAGGAUAUACAUGAGGAUCACCCAUGUGUUUCAGCUAGGAGACUAGCGAAAGUAGAAGGCUGUACUU [salish99_ex3_r4_009] (Eterna round: R97, puzzle: Exclusion 3) and report it.
### Response 0.0084

### Prompt Look up apparent KD of MS2 coat protein of AGCCACAGAGGAUAUACAUACAUCCAGUGGUUAAGAAUACAACAUGAGGAUCACCCAUGUAGAAGGCUGUGGCA [Omei Ex2 BD B10] (Eterna round: R97, puzzle: Exclusion 2) and report it.
### Response 0.152

* * *

# Test system: MS2 coat protein
# assay_name: apparent KD of MS2 coat protein; designed switch direction (-1 OFF switch, 1 ON switch): -1; higher = weaker reporter binding
# conditions: input ligand: FMN 200 uM
result_type: apparent KD of MS2 coat protein (nM)
Number in nM, nothing else.

>  <seq_text>
CGAUGAGGUGUGAGGAUAUCGUGUUCGAAAGAACGUGAGAAGGCACAUGAGGAUCACCCAUGUUAACCUUGUCG [Omei Ex4B A13] (Eterna round: R97, puzzle: Brourd's mod of Exclusion 4)

>  <result_type>
apparent KD of MS2 coat protein

>  <quantity_unit>
nM

>  <value_observed>
11.5

$$$$
>  <seq_text>
AACAGAAAAGAAAUAAAUAACAUGAGGAUCACCCAUGUCAACGGGUAAGAGCUCAACGAGCUGCGAGUCUUACUCAA [Enreaerre] (Eterna round: R96, puzzle: Sensor v2, turn-off variant)

>  <result_type>
apparent KD of MS2 coat protein

>  <quantity_unit>
nM

>  <value_observed>
25.7

$$$$
>  <seq_text>
ACCUCACAUGAGGAUCACCCAUGUCAGGAUAUCUAUUAUUGCAGCAUUCCUGUCGCUGAGAGAAGGGACAUUAA [EX1 #28] (Eterna round: R97, puzzle: Exclusion 1)

>  <result_type>
apparent KD of MS2 coat protein

>  <quantity_unit>
nM

>  <value_observed>
29.4

$$$$
>  <seq_text>
UAAAGAUAAGGAUAUUGAAGGUUCGACAUGAGGAUCACCCAUGUUAUGUUGGAAAAGGGACAAGAAGGUAUGAAAU [salish99_ex5_r4_207] (Eterna round: R97, puzzle: Exclusion 5)

>  <result_type>
apparent KD of MS2 coat protein

>  <quantity_unit>
nM

>  <value_observed>
35.9

$$$$
>  <seq_text>
CCUACUCCCGUUAGGAUAUGUGGAGGCGUACCUCCGUAGAAGGAACAUGAGGAUCACCCAUGUCGCUGUCAUGC [Eternabot (L2) Solution 90] (Eterna round: R97, puzzle: Brourd's mod of Exclusion 4)

>  <result_type>
apparent KD of MS2 coat protein

>  <quantity_unit>
nM

>  <value_observed>
18.4

$$$$

### Prompt Report measured apparent KD of MS2 coat protein; entry is AUUGUAUGAUACCUCUAAUACAUGAGGAUCACCCAUGUUAUCGAGGAUAUGCAGAAUAGAUUAGAGCAGAAGGCGAAGUAAUAU [JR_ExcNG3_Sub025] (Eterna round: R96, puzzle: Exclusion NG 3)
### Response 15

### Prompt Please give the documented apparent KD of MS2 coat protein of CCGGAAAUACAGGAUAUCGUAUCGGAUACGAUACGAGAAGGGUAUACAUGAGGAUCACCCAUGUGUCCUACCGG [Fiskers Ex 6 - 51] (Eterna round: R96, puzzle: Exclusion 6)
### Response 30.1

### Prompt Please report apparent KD of MS2 coat protein for the following sequence: GUUUAGUGAGGAUAUGUGGCUUCGAUCGUGAGAUCGAGGCUACAGAAGGCACAUGAGGAUCACCCAUGUUCCUA [salish99_ex4_r4_107] (Eterna round: R97, puzzle: Exclusion 4)
### Response 87.7

### Prompt Indicate its recorded apparent KD of MS2 coat protein; the sequence in question is GUCAGACGAGGAUAUAGAUUUGAUAACAUGAGGAUCACCCAUGUGAUCGAUAGAUCAGAUUUAGAAGGUGUCUGAC [E5/8-B3] (Eterna round: R97, puzzle: Exclusion 5)
### Response 403

### Prompt Specify apparent KD of MS2 coat protein for GUUUUACAUGAGGAUCACCCAUGUGAGGAUAUAUUAUUAAUAGUGAUAAUUAUUGGUGGUAGAAGGCGCGUGAU [JR_Exc1_Sub012] (Eterna round: R97, puzzle: Exclusion 1) and stop.
### Response 50.9
